Where do the numbers come from? From patent US20230183355A1.

Measured pKd values are reported for all entries that follow.
test_target: T1, full-length rat CD11d on transfected JY cells (rat, UniProt Q9QYE7 20-1161)
T1 construct: whole, on cells
T1 sequence (looked up): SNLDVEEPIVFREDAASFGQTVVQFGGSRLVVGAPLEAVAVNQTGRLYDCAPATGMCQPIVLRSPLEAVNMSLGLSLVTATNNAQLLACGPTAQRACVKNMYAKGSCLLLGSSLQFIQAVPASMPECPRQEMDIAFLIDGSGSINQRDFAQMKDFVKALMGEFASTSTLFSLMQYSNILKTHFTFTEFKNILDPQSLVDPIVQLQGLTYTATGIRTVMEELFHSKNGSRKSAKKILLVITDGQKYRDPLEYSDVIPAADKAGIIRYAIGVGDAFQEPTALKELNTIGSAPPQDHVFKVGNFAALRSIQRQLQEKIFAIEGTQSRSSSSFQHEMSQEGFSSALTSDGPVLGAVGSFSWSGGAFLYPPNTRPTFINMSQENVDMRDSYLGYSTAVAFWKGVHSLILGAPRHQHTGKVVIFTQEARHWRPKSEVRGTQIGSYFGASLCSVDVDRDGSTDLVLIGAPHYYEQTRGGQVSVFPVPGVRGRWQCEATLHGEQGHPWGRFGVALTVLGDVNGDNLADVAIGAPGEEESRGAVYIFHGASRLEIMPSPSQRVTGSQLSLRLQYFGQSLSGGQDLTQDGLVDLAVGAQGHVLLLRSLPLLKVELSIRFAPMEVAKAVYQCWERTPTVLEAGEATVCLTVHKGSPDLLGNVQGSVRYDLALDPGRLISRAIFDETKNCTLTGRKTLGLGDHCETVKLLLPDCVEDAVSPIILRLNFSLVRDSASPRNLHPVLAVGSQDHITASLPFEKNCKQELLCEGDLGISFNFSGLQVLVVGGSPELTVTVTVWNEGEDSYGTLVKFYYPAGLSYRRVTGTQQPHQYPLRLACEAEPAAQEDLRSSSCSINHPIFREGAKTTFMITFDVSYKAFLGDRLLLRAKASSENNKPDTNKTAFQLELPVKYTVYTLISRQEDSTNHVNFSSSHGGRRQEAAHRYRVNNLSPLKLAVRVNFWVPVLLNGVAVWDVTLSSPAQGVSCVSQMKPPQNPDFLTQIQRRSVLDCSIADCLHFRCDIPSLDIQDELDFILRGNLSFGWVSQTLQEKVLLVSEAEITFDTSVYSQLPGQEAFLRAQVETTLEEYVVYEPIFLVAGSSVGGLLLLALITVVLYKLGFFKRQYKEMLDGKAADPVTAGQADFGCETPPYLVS
protocol: FACS on JY cells transfected with full-length rat CD11d; non-linear regression, one-site binding model
pKd: −log10 of the molar value.
measurement_label: pKd

binder	value_reported
Exemplified Antibody 2 (antibody, human IgG4 S228P, kappa, F234A L235A, V domains shown, Humanized antibody, full LC (kappa) and HC (IgG4)) VH: QVQLVQSGAEVKKPGASVKVSCKASGYTFGDYNMHWVRQAPGQGLEWMGYIYPYNGDTGYNQNFKSRVTMTRDTSTSTVYMELSSLRSEDTAVYYCARGLVHYGYLNVAMDSWGQGTLVTVSS VL: DIQMTQSPSSLSASVGDRVTITCRASRSIGTRIHWYQQKPGKAPKLLIYFASGSISGVPSRFSGSGSGTDFTLTISSLQPEDFATYYCQQSKIFPTTFGGGTKLEIKR	9.88
Exemplified Antibody 1 (antibody, human IgG4 S228P, kappa, F234A L235A, V domains shown, Humanized antibody, full LC (kappa) and HC (IgG4)) VH: QVQLVQSGAEVKKPGASVKVSCKASGYTFTDYNMHWVRQAPGQGLEWMGYIYPYNGDTGYNQNFKSRVTMTRDTSTSTVYMELSSLRSEDTAVYYCARGLIYYGYLNVAMDSWGQGTLVTVSS VL: DIQMTQSPSSLSASVGDRVTITCRASQSIGTRIHWYQQKPGKAPKLLIYFASESISGVPSRFSGSGSGTDFTLTISSLQPEDFATYYCQQSKIWPTTFGGGTKLEIKR	8.84
